experiment: Half life in Mongrel dog at 1 mg/kg, iv; type: ADME, organism-based, Canis lupus familiaris; parameters: dose 1 mg/kg, route intravenous; settings: in vivo
Exercise: state measured half-life for each of the molecules provided.
Write the value in h as a bare number.

### Prompt // returns reported half-life for input "CCOc1cc(C(=O)NC2(C(=O)N[C@H](C)c3ncc(-c4cc(Cl)cc(Cl)c4OCC(F)F)cc3F)CC2)on1"
### Response 13.5

### Prompt // returns reported half-life for input "C[C@@H](NC(=O)C1(NC(=O)C(F)(F)F)CC1)c1ncc(-c2cc(Cl)cc(Cl)c2OCC(F)F)cc1F"
### Response 21

### Prompt // returns reported half-life for input "COc1cc(C(=O)NC2(C(=O)N[C@H](C)c3ncc(-c4cc(Cl)cc(Cl)c4OCC(F)F)cc3F)CC2)on1"
### Response 21

### Prompt // returns reported half-life for input "CCOc1c(Cl)cc(Cl)cc1-c1cnc([C@@H](C)NC(=O)C2(NC(=O)c3ccno3)CC2)c(F)c1"
### Response 4.5

* * *

Exercise: state measured clearance for each of the molecules provided.
assay: Clearance in rhesus monkey at 3 mg/kg, po or 1 mg/kg, iv; format: ADME, organism-based, Macaca mulatta; settings: in vivo

### Prompt // returns reported clearance for input "COC(=O)c1c(Cl)cc(Cl)cc1-c1ccc([C@@H](C)NC(=O)C2(NC(=O)C(F)(F)F)CC2)c(F)c1"
### Response 11.2 mL/min/kg

### Prompt // returns reported clearance for input "COc1cc(C(=O)NC2(C(=O)N[C@H](C)c3ncc(-c4cc(Cl)cc(Cl)c4OCC(F)F)cc3F)CC2)on1"
### Response 1.6 mL/min/kg

### Prompt // returns reported clearance for input "Cc1cc(C(=O)NC2(C(=O)N[C@H](C)c3ncc(-c4cc(Cl)cc(Cl)c4OCC(F)F)cc3F)CC2)no1"
### Response 9.1 mL/min/kg

### Prompt // returns reported clearance for input "CCOc1c(Cl)cc(Cl)cc1-c1cnc([C@@H](C)NC(=O)C2(NC(=O)c3ccno3)CC2)c(F)c1"
### Response 15 mL/min/kg

* * *

Exercise: state measured activity at 10 µM for each of the molecules provided.
target: PXR (Nuclear receptor subfamily 1 group I member 2) (Homo sapiens, UniProt O75469); experiment: Reduction of PXR activation at 10 uM relative to rifampicin; parameters: scale not given: the % may be the effect or the level left; settings: read-out: Activity

### Prompt Short answer please: activity at 10 µM, PXR (Nuclear receptor subfamily 1 group I member 2) (Homo sapiens, UniProt O75469), entry "C[C@@H](NC(=O)C1(NC(=O)c2ccno2)CC1)c1ncc(-c2cc(Cl)cc(Cl)c2OCC(F)F)cc1F"
### Response 21%

### Prompt Short answer please: activity at 10 µM, PXR (Nuclear receptor subfamily 1 group I member 2) (Homo sapiens, UniProt O75469), entry "COC(=O)c1c(Cl)cc(Cl)cc1-c1ccc([C@@H](C)NC(=O)C2(NC(=O)C(F)(F)F)CC2)c(F)c1"
### Response 77%

### Prompt Short answer please: activity at 10 µM, PXR (Nuclear receptor subfamily 1 group I member 2) (Homo sapiens, UniProt O75469), entry "CCOc1cc(C(=O)NC2(C(=O)N[C@H](C)c3ncc(-c4cc(Cl)cc(Cl)c4OCC(F)F)cc3F)CC2)on1"
### Response 37%

### Prompt Short answer please: activity at 10 µM, PXR (Nuclear receptor subfamily 1 group I member 2) (Homo sapiens, UniProt O75469), entry "C[C@@H](NC(=O)C1(NC(=O)c2ccon2)CC1)c1ncc(-c2cc(Cl)cc(Cl)c2OCC(F)F)cc1F"
### Response 23%

### Prompt Short answer please: activity at 10 µM, PXR (Nuclear receptor subfamily 1 group I member 2) (Homo sapiens, UniProt O75469), entry "C[C@@H](NC(=O)C1(NC(=O)c2cc(C3CC3)on2)CC1)c1ncc(-c2cc(Cl)cc(Cl)c2OCC(F)F)cc1F"
### Response 58%

### Prompt Short answer please: activity at 10 µM, PXR (Nuclear receptor subfamily 1 group I member 2) (Homo sapiens, UniProt O75469), entry "C[C@@H](NC(=O)C1(NC(=O)C(F)(F)F)CC1)c1ccc(-c2cc(Cl)cc(Cl)c2OCC(F)F)cc1F"
### Response 95%

### Prompt Short answer please: activity at 10 µM, PXR (Nuclear receptor subfamily 1 group I member 2) (Homo sapiens, UniProt O75469), entry "COC(=O)c1c(Cl)cc(Cl)cc1-c1ccc([C@@H](C)NC(=O)C2(NC(=O)c3cc(OC)no3)CC2)c(F)c1"
### Response 40%

### Prompt Short answer please: activity at 10 µM, PXR (Nuclear receptor subfamily 1 group I member 2) (Homo sapiens, UniProt O75469), entry "C[C@@H](NC(=O)C1(NC(=O)C(F)(F)F)CC1)c1ccc(-c2cc(Cl)cc(Cl)c2OCC(F)(F)F)cc1F"
### Response 45%

* * *

Target: PXR (Nuclear receptor subfamily 1 group I member 2) (Homo sapiens, UniProt O75469)
Sequence (O75469 whole entry): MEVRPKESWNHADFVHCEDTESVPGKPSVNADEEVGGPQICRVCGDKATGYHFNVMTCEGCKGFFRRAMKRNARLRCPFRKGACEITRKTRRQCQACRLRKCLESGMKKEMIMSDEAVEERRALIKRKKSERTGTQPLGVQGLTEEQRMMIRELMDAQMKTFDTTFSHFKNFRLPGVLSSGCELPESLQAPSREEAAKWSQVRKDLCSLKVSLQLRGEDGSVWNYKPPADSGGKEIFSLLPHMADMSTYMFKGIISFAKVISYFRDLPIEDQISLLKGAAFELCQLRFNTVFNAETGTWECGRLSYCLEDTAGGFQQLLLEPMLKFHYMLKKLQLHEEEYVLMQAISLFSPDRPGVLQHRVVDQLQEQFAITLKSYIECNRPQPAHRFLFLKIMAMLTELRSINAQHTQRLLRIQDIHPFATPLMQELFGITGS
Test: Reduction of PXR activation at 10 uM relative to rifampicin
Design: scale not given: the % may be the effect or the level left
Details: read-out: Activity
Exercise: state measured activity at 10 µM for each of the compounds provided.
Write the value in % as a bare number.

### Prompt // returns reported activity at 10 µM for input "Cc1cc(C(=O)NC2(C(=O)N[C@H](C)c3ncc(-c4cc(Cl)cc(Cl)c4OCC(F)F)cc3F)CC2)no1"
### Response 28

### Prompt // returns reported activity at 10 µM for input "CCOc1c(Cl)cc(Cl)cc1-c1cnc([C@@H](C)NC(=O)C2(NC(=O)C(F)(F)F)CC2)c(F)c1"
### Response 89

### Prompt // returns reported activity at 10 µM for input "C[C@@H](NC(=O)C1(NC(=O)C(F)(F)F)CC1)c1ncc(-c2cc(Cl)cc(Cl)c2OCC(F)F)cc1F"
### Response 99

### Prompt // returns reported activity at 10 µM for input "CCOc1c(Cl)cc(Cl)cc1-c1cnc([C@@H](C)NC(=O)C2(NC(=O)c3ccno3)CC2)c(F)c1"
### Response 15

### Prompt // returns reported activity at 10 µM for input "COc1cc(C(=O)NC2(C(=O)N[C@H](C)c3ncc(-c4cc(Cl)cc(Cl)c4OCC(F)F)cc3F)CC2)on1"
### Response 8

### Prompt // returns reported activity at 10 µM for input "C[C@@H](NC(=O)C1(NC(=O)c2cc(Cl)no2)CC1)c1ncc(-c2cc(Cl)cc(Cl)c2OCC(F)F)cc1F"
### Response 68

### Prompt // returns reported activity at 10 µM for input "CCc1cc(C(=O)NC2(C(=O)N[C@H](C)c3ncc(-c4cc(Cl)cc(Cl)c4OCC(F)F)cc3F)CC2)no1"
### Response 37

### Prompt // returns reported activity at 10 µM for input "CCOc1c(Cl)cc(Cl)cc1-c1ccc([C@@H](C)NC(=O)C2(NC(=O)C(F)(F)F)CC2)c(F)c1"
### Response 62

* * *

assay: Half life in Sprague-Dawley rat at 10 mg/kg, po or 2 mg/kg, iv; type: ADME, organism-based; conditions: in vivo
readout: half-life (h)
Write the value in h as a bare number.

### Prompt // returns reported half-life for input "CCOc1c(Cl)cc(Cl)cc1-c1cnc([C@@H](C)NC(=O)C2(NC(=O)c3ccno3)CC2)c(F)c1"
### Response 1.9

### Prompt // returns reported half-life for input "CCOc1c(Cl)cc(Cl)cc1-c1cnc([C@@H](C)NC(=O)C2(NC(=O)C(F)(F)F)CC2)c(F)c1"
### Response 5

### Prompt // returns reported half-life for input "CCOc1c(Cl)cccc1-c1ccc([C@@H](C)NC(=O)C2(NC(=O)C(F)(F)F)CC2)c(F)c1"
### Response 1.9

### Prompt // returns reported half-life for input "COc1cc(C(=O)NC2(C(=O)N[C@H](C)c3ncc(-c4cc(Cl)cc(Cl)c4OCC(F)F)cc3F)CC2)on1"
### Response 4.5

### Prompt // returns reported half-life for input "C[C@@H](NC(=O)C1(NC(=O)C(F)(F)F)CC1)c1ccc(-c2cc(Cl)cc(Cl)c2OCC(F)(F)F)cc1F"
### Response 27

### Prompt // returns reported half-life for input "C[C@@H](NC(=O)C1(NC(=O)C(F)(F)F)CC1)c1ccc(-c2cc(Cl)cc(Cl)c2OC(CF)CF)cc1F"
### Response 5

### Prompt // returns reported half-life for input "C[C@@H](NC(=O)C1(NC(=O)C(F)(F)F)CC1)c1ccc(-c2cc(Cl)cc(Cl)c2OCC(F)F)cc1F"
### Response 7.6

### Prompt // returns reported half-life for input "CCOc1c(Cl)cc(Cl)cc1-c1ccc([C@@H](C)NC(=O)C2(NC(=O)C(F)(F)F)CC2)c(F)c1"
### Response 7.5

### Prompt // returns reported half-life for input "Cc1cc(C(=O)NC2(C(=O)N[C@H](C)c3ncc(-c4cc(Cl)cc(Cl)c4OCC(F)F)cc3F)CC2)no1"
### Response 3
